STUDY SYSTEM: T1, biotinylated CD3 epsilon:delta heterodimer protein (Amsbio AMS.CDD-H52WO) (Homo sapiens (Human), UniProt P07766 23-126; P04234 22-105)
T1 construct: also called CD3 heterodimer
PROTOCOL DESCRIPTION: BLI (Octet), CD3 on SA sensor, Fab analyte;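 also: biolayer interferometry with biotinylated CD3 epsilon:delta captured on streptavidin sensors, Fab analyte at several concentrations up to 300 nM, 100 s association then 300 s dissociation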
pKd: −log10 of the molar value.
Please use met whenever pKd is not below 7, and not met whenever it is.

Check out these entries, answers already filled in.
// query Please indicate if the recorded pKd for huSP34.6.1 Fab-HF (Fab, V domains shown, also called HC6+LC1) VH: EVQLVESGGGLVQPGGSLRLSCAASGFTFSTYAMNWVRQAPGKGLEWVGRIRSKYNNYATYYADSVKGRFTISRDNSKNTLYLQMNSLRAEDTAMYYCVRHGNFGNSYVSWFAVWGQGTLVTVSS VL: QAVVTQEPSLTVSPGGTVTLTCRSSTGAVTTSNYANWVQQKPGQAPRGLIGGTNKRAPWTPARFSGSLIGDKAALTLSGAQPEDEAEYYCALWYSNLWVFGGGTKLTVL meets or exceeds 7.
// result met

// query Please indicate if the recorded pKd for huSP34.8.2 Fab-HF (Fab, V domains shown, also called HC8+LC2) VH: EVQLVESGGGLVQPGGSLRLSCAASGFTFSDYAMNWVRQAPGKGLEWVGRTRSKYNNYATYYAASVKGRFTISRDDSKNSLYLQMNSLKTEDTAVYYCVRHGNFGHSYVSWFAVWGQGTLVTVSS VL: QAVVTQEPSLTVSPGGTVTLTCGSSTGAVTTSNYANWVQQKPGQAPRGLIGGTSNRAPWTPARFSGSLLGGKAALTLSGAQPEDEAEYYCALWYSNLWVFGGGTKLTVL meets or exceeds 7.
// result not met

// query Please indicate if the recorded pKd for huSP34.2.2 Fab-HF (Fab, V domains shown, also called HC2+LC2) VH: EVQLVESGGGLVQPGGSLRLSCAASGFTFSTYAMNWVRQAPGKGLEWVGRIRSKYNNYATYYAASVKGRFTISRDDSKNSLYLQMNSLKTEDTAMYYCVRHGNFGNSYVSWFAVWGQGTLVTVSS VL: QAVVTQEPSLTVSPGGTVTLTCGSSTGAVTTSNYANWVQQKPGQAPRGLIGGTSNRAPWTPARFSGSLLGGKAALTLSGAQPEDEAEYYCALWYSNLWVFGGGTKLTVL meets or exceeds 7.
// result met

Could you now look at the following binder, please?
// query Please indicate if the recorded pKd for huSP34.8.5 Fab-HF (Fab, V domains shown, also called HC8+LC5) VH: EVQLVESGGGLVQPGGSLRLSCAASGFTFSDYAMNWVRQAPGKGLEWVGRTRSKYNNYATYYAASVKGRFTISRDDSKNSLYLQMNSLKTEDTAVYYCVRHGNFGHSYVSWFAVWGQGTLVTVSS VL: QAVVTQEPSLTVSPGGTVTLTCGSSTGAVTTGHYANWVQQKPGQAPRGLIGGTSNRAPWTPARFSGSLLGGKAALTLSGAQPEDEAEYYCALWYSARWVFGGGTKLTVL meets or exceeds 7.
// result not met
